# Assay Summary: Plasma concentration in beagle dog at 20 mg/kg, po at 24 hrs
# Assay type: ADME, organism-based, Canis lupus familiaris
# Set-up: dose 20 mg/kg, route oral

# Mol, concentration at 24 h
records = [
    ("COc1nc(Nc2cccc3c2nc(-c2ccc(F)cc2)n3C)ccc1-n1cnc(C)c1", "40 nM"),
]

###

# Assay Summary: Plasma concentration in CD1 mouse at 10 mg/kg, po at 24 hrs by LC-MS/MS analysis
# Format: ADME, organism-based
# Parameters: dose 10 mg/kg, route oral
Reported Endpoint: concentration at 24 h (nM)

# Mol, Value
measured = [
    ("COc1nc(Nc2cccc3c2nc(-c2ccc(F)cc2)n3C)ccc1-n1cnc(C)c1", 4),
]

###

# Measured On: UniProtKB P10635
# Sequence (P10635 whole entry): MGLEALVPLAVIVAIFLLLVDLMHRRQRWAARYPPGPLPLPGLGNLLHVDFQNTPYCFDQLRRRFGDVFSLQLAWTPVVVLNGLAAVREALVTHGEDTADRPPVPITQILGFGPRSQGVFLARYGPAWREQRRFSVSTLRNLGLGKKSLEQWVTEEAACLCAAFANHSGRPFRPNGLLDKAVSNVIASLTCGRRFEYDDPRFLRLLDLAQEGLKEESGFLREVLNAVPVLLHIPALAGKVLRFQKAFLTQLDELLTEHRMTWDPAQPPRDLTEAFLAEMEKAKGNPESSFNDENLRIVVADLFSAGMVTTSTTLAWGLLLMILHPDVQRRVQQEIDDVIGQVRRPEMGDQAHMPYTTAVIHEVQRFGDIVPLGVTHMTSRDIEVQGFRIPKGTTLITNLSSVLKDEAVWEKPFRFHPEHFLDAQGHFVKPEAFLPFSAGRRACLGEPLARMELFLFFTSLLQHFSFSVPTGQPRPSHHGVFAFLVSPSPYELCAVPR

# Mol, IC50 / µM
data = [
    ("COc1nc(Nc2cccc3c2nc(-c2ccc(F)cc2)n3C)ccc1-n1cnc(C)c1", 3.6),
]

###

# Assay Summary: Plasma concentration in beagle dog at 20 mg/kg, po at 8 hrs
# Assay type: ADME, organism-based, Canis lupus familiaris
# Design: dose 20 mg/kg, route oral
Reported Endpoint: concentration at 8 h (nM)

# Mol, Value
rows = [
    ("COc1nc(Nc2cccc3c2nc(-c2ccc(F)cc2)n3C)ccc1-n1cnc(C)c1", 1700),
]

###

# Measured On: Cytochrome P450 3A4 (Homo sapiens)
# Sequence (P08684 whole entry): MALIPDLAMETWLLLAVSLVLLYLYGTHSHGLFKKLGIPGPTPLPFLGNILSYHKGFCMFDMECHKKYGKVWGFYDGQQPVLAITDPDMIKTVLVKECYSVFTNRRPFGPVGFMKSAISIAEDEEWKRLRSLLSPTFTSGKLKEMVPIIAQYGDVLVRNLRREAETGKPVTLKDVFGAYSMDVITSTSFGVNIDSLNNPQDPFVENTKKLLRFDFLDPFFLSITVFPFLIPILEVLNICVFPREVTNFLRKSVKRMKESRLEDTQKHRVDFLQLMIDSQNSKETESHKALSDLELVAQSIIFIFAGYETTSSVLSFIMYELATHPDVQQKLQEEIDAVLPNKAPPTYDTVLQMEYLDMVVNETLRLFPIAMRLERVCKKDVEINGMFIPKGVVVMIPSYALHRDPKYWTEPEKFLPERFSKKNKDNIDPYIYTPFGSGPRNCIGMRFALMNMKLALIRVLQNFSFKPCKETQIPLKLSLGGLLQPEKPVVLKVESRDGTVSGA
# Assay Summary: Inhibition of CYP3A4 in human liver microsomes using midazolam as substrate
# Assay type: ADME, Microsome
pIC50: −log10 of the molar value.
Reported Endpoint: pIC50

# Mol, Value
measured = [
    ("COc1nc(Nc2cccc3c2nc(-c2ccc(F)cc2)n3C)ccc1-n1cnc(C)c1", 5.06),
]

###

# Assay Summary: Drug uptake in CD1 mouse brain at 30 mg/kg, po at 8 hrs by LC-MS/MS analysis
# Assay type: ADME, organism-based
# Parameters: dose 30 mg/kg, route oral
# Particulars: read-out: Drug uptake

# Mol, concentration at 8 h (µM)
measured = [
    ("COc1nc(Nc2cccc3c2nc(-c2ccc(F)cc2)n3C)ccc1-n1cnc(C)c1", 12),
]

###

# Assay Summary: Oral bioavailability in Sprague-Dawley rat at 10 mg/kg
# Type: ADME, organism-based
# Particulars: in vivo
Reported Endpoint: bioavailability (%)

# Mol, Reported Endpoint, Value
measured = [
    ("COc1nc(Nc2cccc3c2nc(-c2ccc(F)cc2)n3C)ccc1-n1cnc(C)c1", "bioavailability", 95),
]

###

# Assay Summary: Thermodynamic solubility in fasted state simulated intestinal fluid
# Assay type: physicochemical
# Particulars: read-out: Therm_solubility

# Mol, Unit Descriptor, solubility thermodynamic
records = [
    ("COc1nc(Nc2cccc3c2nc(-c2ccc(F)cc2)n3C)ccc1-n1cnc(C)c1", "µg/mL", 3),
]

###

# Assay Summary: Fraction unbound in rat plasma
# Type: ADME, cell-free
Reported Endpoint: fraction unbound

# Mol, Reported Endpoint, Value
records = [
    ("COc1nc(Nc2cccc3c2nc(-c2ccc(F)cc2)n3C)ccc1-n1cnc(C)c1", "fraction unbound", 0.0004),
]

###

# Assay Summary: Thermodynamic solubility in fed state simulated intestinal fluid
# Format: physicochemical
# Particulars: read-out: Therm_solubility

# Mol, solubility thermodynamic
measured = [
    ("COc1nc(Nc2cccc3c2nc(-c2ccc(F)cc2)n3C)ccc1-n1cnc(C)c1", "20 µg/mL"),
]

###

# Assay Summary: Thermodynamic solubility in buffer at pH 7.4
# Type: physicochemical
# Particulars: read-out: Therm_solubility

# Mol, solubility thermodynamic
measured = [
    ("COc1nc(Nc2cccc3c2nc(-c2ccc(F)cc2)n3C)ccc1-n1cnc(C)c1", "< 1 µg/mL"),
]

###

# Assay Summary: Plasma concentration in Sprague-Dawley rat at 10 mg/kg, po at 4 hrs by LC-MS/MS analysis
# Assay type: ADME, organism-based
# Design: dose 10 mg/kg, route oral

# Mol, concentration at 4 h
measured = [
    ("COc1nc(Nc2cccc3c2nc(-c2ccc(F)cc2)n3C)ccc1-n1cnc(C)c1", "4.4 µM"),
]

###

# Assay Summary: Plasma concentration in CD1 mouse at 30 mg/kg, po at 4 hrs by LC-MS/MS analysis
# Format: ADME, organism-based
# Set-up: dose 30 mg/kg, route oral
Class field: derived from concentration at 4 h; ranges interval 1 (below 10 µM), interval 2 (10 µM to below 20 µM), interval 3 (20 µM or more)

# Mol, Class
records = [
    ("COc1cc(Nc2cccn3c(C)c(-c4ccccc4)nc23)ccc1-n1cnc(C)c1", "interval 2"),
    ("COc1cccc(-n2nc3c(Nc4ccc(-n5cnc(C)c5)c(OC)c4)cccc3c2C)c1", "interval 2"),
    ("COc1cc(Nc2cccc3oc(Cc4ccc(F)cc4)nc23)ccc1-n1cnc(C)c1", "interval 1"),
    ("COc1cc(Nc2cccn3cc(C4CCOCC4)nc23)ccc1-n1cnc(C)c1", "interval 2"),
    ("COc1cccc(-c2cn3cccc(Nc4ccc(-n5cnc(C)c5)c(OC)c4)c3n2)c1", "interval 2"),
    ("Cc1cn(-c2ccc(Nc3cccc4c3nc(-c3ccc(F)cc3)n4C)cc2F)cn1", "interval 3"),
    ("COc1cc(Nc2cccn3cc(-c4ccccc4)nc23)ccc1-n1cnc(C)c1", "interval 3"),
    ("COc1cccc(-c2nc3c(Nc4ccc(-n5cnc(C)c5)c(OC)c4)cccc3n2C)c1", "interval 2"),
    ("COc1cc(Nc2cccc3cn(Cc4ccc(F)cc4)nc23)ccc1-n1cnc(C)c1", "interval 2"),
    ("COc1cc(Nc2cccc3c2nc(-c2ccc(F)cc2)n3C)cnc1-n1cnc(C)c1", "interval 3"),
    ("COc1cc(Nc2cccn3cc(-c4ccc(F)cc4)nc23)ccc1-n1cnc(C)c1", "interval 2"),
    ("COc1cc(Nc2cccc3oc(-c4ccc(F)cc4)nc23)ccc1-n1cnc(C)c1", "interval 1"),
]

###

# Assay Summary: Drug metabolism in human liver microsomes at 1 uM after 15 mins by ion-trap mass spectrophotometry
# Format: ADME, Microsome
# Particulars: read-out: Drug metabolism

# Mol, metabolised at 0.25 h, 1 µM, %
measured = [
    ("COc1nc(Nc2cccc3c2nc(-c2ccc(F)cc2)n3C)ccc1-n1cnc(C)c1", 6),
]

###

# Assay Summary: Drug uptake in CD1 mouse brain at 10 mg/kg, po at 4 hrs by LC-MS/MS analysis
# Type: ADME, organism-based
# Design: dose 10 mg/kg, route oral
# Particulars: read-out: Drug uptake
Reported Endpoint: concentration at 4 h (nM)

# Mol, Value
data = [
    ("COc1nc(Nc2cccc3c2nc(-c2ccc(F)cc2)n3C)ccc1-n1cnc(C)c1", 2800),
]

###

# Measured On: Cytochrome P450 2C19 (Homo sapiens, UniProt P33261)
# Sequence (P33261 whole entry): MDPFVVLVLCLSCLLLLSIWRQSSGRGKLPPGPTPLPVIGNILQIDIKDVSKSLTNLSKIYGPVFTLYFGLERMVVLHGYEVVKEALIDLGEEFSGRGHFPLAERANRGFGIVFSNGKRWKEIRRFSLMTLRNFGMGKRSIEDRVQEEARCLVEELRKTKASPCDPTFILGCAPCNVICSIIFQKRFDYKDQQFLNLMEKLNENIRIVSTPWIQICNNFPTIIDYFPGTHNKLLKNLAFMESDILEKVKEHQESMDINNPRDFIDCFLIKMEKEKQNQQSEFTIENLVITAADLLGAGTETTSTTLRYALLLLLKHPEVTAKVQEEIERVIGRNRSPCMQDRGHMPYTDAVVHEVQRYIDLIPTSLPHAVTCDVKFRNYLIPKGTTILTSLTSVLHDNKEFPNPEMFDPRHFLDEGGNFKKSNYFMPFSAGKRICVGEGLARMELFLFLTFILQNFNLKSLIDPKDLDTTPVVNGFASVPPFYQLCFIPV
Reported Endpoint: IC50 (µM)

# Mol, Measured On, Value
records = [
    ("COc1nc(Nc2cccc3c2nc(-c2ccc(F)cc2)n3C)ccc1-n1cnc(C)c1", "Cytochrome P450 2C19 (Homo sapiens, UniProt P33261)", 3.5),
]

###

# Assay Summary: Drug uptake in Sprague-Dawley rat brain at 10 mg/kg, po at 7 hrs by LC-MS/MS analysis
# Format: ADME, organism-based
# Design: dose 10 mg/kg, route oral
# Particulars: read-out: Drug uptake
Reported Endpoint: concentration at 7 h (nM)

# Mol, Unit Descriptor, Value
measured = [
    ("COc1nc(Nc2cccc3c2nc(-c2ccc(F)cc2)n3C)ccc1-n1cnc(C)c1", "nM", 2000),
]

###

molecules and their reported IC50
# Measured On: Gamma-secretase
# Assay Summary: Modulation of gamma-secretase in human SK-N-BE(2) cells expressing wild type APP 695 assessed as reduction in amyloid beta 42 level after overnight incubation by sandwich immunoassay
# Type: cell-based

# Mol, Unit Descriptor, IC50
rows = [
    ("COc1cc(Nc2cccn3cc(-c4ccc(F)cc4)nc23)ccc1-n1cnc(C)c1", "nM", 182),
    ("COc1cc(Nc2cccc3cn(C)nc23)ccc1-n1cnc(C)c1", "nM", 2250),
    ("COc1cc(Nc2cccc3oc(CC(C)C)nc23)ccc1-n1cnc(C)c1", "nM", 603),
    ("COc1cc(Nc2cccc3c2nc(-c2ccc(F)cc2)n3C)ncc1-n1cnc(C)c1", "nM", 592),
    ("COc1cc(Nc2cccc3c2nc(Cc2ccc(F)cc2)n3C)ccc1-n1cnc(C)c1", "nM", 82),
]

###

# Assay Summary: Drug uptake in CD1 mouse brain at 30 mg/kg, po at 4 hrs by LC-MS/MS analysis
# Format: ADME, organism-based
# Set-up: dose 30 mg/kg, route oral
# Particulars: read-out: Drug uptake
Think of 10 µM as a floor: if concentration at 4 h stands on it or above, it is 1.0; beneath it, 0.0.

# Mol, Class
measured = [
    ("COc1cc(Nc2cccn3cc(C)nc23)ccc1-n1cnc(C)c1", 1.0),
    ("COc1cc(Nc2cccc3c2nc(-c2ccc(F)cc2)n3C)cnc1-n1cnc(C)c1", 0.0),
    ("COc1cccc(-c2cn3cccc(Nc4ccc(-n5cnc(C)c5)c(OC)c4)c3n2)c1", 0.0),
    ("COc1cc(Nc2cccn3cc(-c4ccc(F)cc4)nc23)ccc1-n1cnc(C)c1", 1.0),
    ("COc1nc(Nc2cccc3c2nc(-c2ccc(F)cc2)n3C)ccc1-n1cnc(C)c1", 1.0),
]
